Measured values drawn from PubChem BioAssay AID686969 for this set.

- Study Target: methionyl-tRNA synthetase (Trypanosoma brucei)
- Test Protocol: inhibition of trypanosomal methionyl-tRNA synthetase – biochemical, fluorescence polarization, dose response, orthogonal assay for T. brucei MetRS inhibitor project, late-stage follow-up (AID 686969)
Activity calls are given as the source filed them. How the calls were made is not given here.
Assign a class; possible classes are true (active), false (inactive)

[[record]]
molecule = "O=C(NCc1nc2ccccc2[nH]1)C1=C[C@@H](c2ccc3c(c2)OCO3)C[C@@H](OCCCCO)O1"
assigned_category = "true"

[[record]]
molecule = "COc1ccccc1NS(=O)(=O)c1cccc(NC(=O)Nc2ccccc2)c1"
assigned_category = "true"

[[record]]
molecule = "O=C(Cn1cnc2ccccc21)Nc1cccc([N+](=O)[O-])c1"
assigned_category = "true"

[[record]]
molecule = "O=C(NCc1nc2ccccc2[nH]1)C1=C[C@H](c2ccc3c(c2)OCO3)C[C@H](OCCCCO)O1"
assigned_category = "true"

[[record]]
molecule = "CC(C)(C)[C@H]1C=C(C(=O)NCc2nc3ccccc3[nH]2)O[C@@H](OCc2ccc(CO)cc2)C1"
assigned_category = "true"

[[record]]
molecule = "CC(=O)c1ccc(N2CCN(C(=O)CCCn3c(=O)[nH]c4ccc(Br)cc4c3=O)CC2)cc1"
assigned_category = "true"

[[record]]
molecule = "Cc1ccc(NC(=O)CN(C)C(=O)CCSc2ccc(F)cc2)cc1"
assigned_category = "true"

[[record]]
molecule = "Brc1cnc2nc(SCc3nc4ccccc4[nH]3)[nH]c2c1"
assigned_category = "true"


Recorded test outcome, item COc1ccc(OCC(O)CNC(=O)Nc2ccc(Cl)cc2)cc1 (stereo not given)
true

Recorded test outcome, item O=C(CCC(=O)Nc1cccc([N+](=O)[O-])c1)NN=Cc1cccs1
true

Recorded test outcome, item O=C(CC=NOCc1ccc([N+](=O)[O-])cc1)Nc1ccc(Cl)cc1
true

Recorded test outcome, item O=C1CC(SCc2nc3ccccc3[nH]2)C(=O)N1c1cccc(Cl)c1 (stereo not given)
false

Recorded test outcome, item O=C(NCc1nc2ccccc2[nH]1)C1=C[C@H](c2ccc(Br)cc2)C[C@H](OCc2ccc(CO)cc2)O1
true

Recorded test outcome, item Oc1c(Cl)cc(Cl)cc1CNc1nc2ccccc2[nH]1
true
